tgt: T1, cyno PAI-1 captured on immobilized human vitronectin (cynomolgus monkey; human, UniProt P04004 20-478, limits assumed)
T1 construct: non-covalent complex formed on the chip; also called cPAI-1/Vn
assaySummary: Biacore, cPAI-1 on vitronectin chip, 1:1 model
experimentalReadout: kon

| binder | valueMeasured |
| --- | --- |
| A44-hv12 (antibody, V domains shown, humanized A44, HEK293; constant regions as for A44-hv1; also called LC4 x HC3; variant 12) VH: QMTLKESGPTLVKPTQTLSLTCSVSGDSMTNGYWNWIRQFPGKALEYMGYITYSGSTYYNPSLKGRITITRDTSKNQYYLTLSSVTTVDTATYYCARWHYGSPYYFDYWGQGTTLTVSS VL: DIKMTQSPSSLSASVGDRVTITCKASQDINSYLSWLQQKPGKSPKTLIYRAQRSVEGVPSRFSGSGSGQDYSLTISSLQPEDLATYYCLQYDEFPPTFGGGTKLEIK | 4.26e+06 M⁻¹ s⁻¹ |
| A44-hv14 (antibody, V domains shown, humanized A44, HEK293; constant regions as for A44-hv1; also called LC4 x HC5b; variant 14) VH: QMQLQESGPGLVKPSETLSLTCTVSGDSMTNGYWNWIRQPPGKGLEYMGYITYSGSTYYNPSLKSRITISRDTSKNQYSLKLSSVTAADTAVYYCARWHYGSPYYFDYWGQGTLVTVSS VL: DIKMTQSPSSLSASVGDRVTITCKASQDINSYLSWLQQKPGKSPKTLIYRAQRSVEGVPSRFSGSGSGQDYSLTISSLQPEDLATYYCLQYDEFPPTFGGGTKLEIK | 5.86e+06 M⁻¹ s⁻¹ |
| A44-hv5 (antibody, V domains shown, humanized A44, HEK293; constant regions as for A44-hv1; also called LC2 x HC2b; variant 5) VH: EMTLKESGPTLVKPTQTLSLTCSVTGDSMTQGYWNWIRKFPGKALEYMGYITYSGSTYYNPSLKGRISITRNTSKNQYYLTLSSVTTVDTATYYCARWHYGSPYYFDYWGQGTTLTVSS VL: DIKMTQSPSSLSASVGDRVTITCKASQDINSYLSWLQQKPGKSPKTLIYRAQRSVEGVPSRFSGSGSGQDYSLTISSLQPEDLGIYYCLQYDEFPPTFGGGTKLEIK | 3.4e+06 M⁻¹ s⁻¹ |
